From: ChEMBL document CHEMBL1158035

Assay: Cytotoxicity against human Hep G2 cells
Format: functional, HepG2
Conditions: Homo sapiens, HepG2
Numbered stars: 1 amine (or outer) side, 2 acyl side, 3 side chain; on linkers, the order of the positions; unused ones are H or OH. Bridge positions count the residues as written; N and C are the ends. Square brackets hold non-standard residues; d marks the D form. Peptide text beside a SMILES is read from it. I, II: the chains in the order shown. Actinocin(1to9) = Cc1c2oc3c(C)ccc(C(=O)[*:2])c3nc-2c(C(=O)[*:1])c(N)c1=O; NMeV = CN[C@H](C(=O)O)C(C)C; Sar = CNCC(=O)O
For each record, write down the corresponding TGI.
Report the value in µM with no unit label.

Name the recorded TGI for Cc1c2oc3c(C)ccc(C(=O)N[C@@H]4C(=O)N[C@H](C(C)C)C(=O)N5CCC[C@H]5C(=O)N(C)CC(=O)N(C)[C@@H](C(C)C)C(=O)O[C@@H]4C)c3nc-2c(C(=O)N[C@@H]2C(=O)N[C@H](C(C)C)C(=O)N3CCC[C@H]3C(=O)N(C)CC(=O)N(C)[C@@H](C(C)C)C(=O)O[C@@H]2C)c(N)c1=O [DACTINOMYCIN] (I: T[dV]P[Sar][NMeV] / II: T[dV]P[Sar][NMeV]; ester I:1-I:C, II:1-II:C; linker I:N-II:N via Actinocin(1to9)) .
0.052

Form field: reported TGI of `Nc1cc2nc3ccccc3oc-2cc1=O`
26
